Recorded measurements of inhibition at 30 µM, one per entry
- System: RAW264.7
- assaySummary: Antiinflammatory activity in mouse RAW264.7 cells assessed as inhibition of LPS-induced NO production at 30 uM incubated for 10 mins prior to LPS-challenge measured after 18 hrs by Griess method relative to control
- Format: functional
Kindly answer with a numeric value in %, unit omitted.

# compound, measuredTarget, inhibition at 30 µM / %
records = [
    ("CCCC(=O)c1c2c(c3oc(=O)cc(-c4ccccc4)c3c1O)C=CC(C)(C)O2", "RAW264.7", 14.3),
]

Query: Any idea what inhibition at 30 µM came out for `Oc1ccc(-c2nc(-c3ccncc3)c(-c3ccc(F)cc3)[nH]2)cc1` on RAW264.7?
Response: 70.2

Query: Any idea what inhibition at 30 µM came out for CCC(C)C(=O)c1c(O)c(CC=C(C)C)c2oc(=O)cc([C@@H](O)CC)c2c1O (stereo partly specified) on RAW264.7?
Response: 63.1

Query: Any idea what inhibition at 30 µM came out for `CC[C@H](O)c1cc(=O)oc2c(CC=C(C)C)c(O)c(C(=O)CC(C)C)c(O)c12` on RAW264.7?
Response: 72.3

Query: Any idea what inhibition at 30 µM came out for `O=C(/C=C/c1ccc(O)c(O)c1)OCCc1ccccc1` on RAW264.7?
Response: 100

Query: Any idea what inhibition at 30 µM came out for `CCCC(=O)c1c(O)c(CC=C(C)C)c2oc(=O)cc(-c3ccccc3)c2c1O` on RAW264.7?
Response: 67.6

Query: Any idea what inhibition at 30 µM came out for `CCCC(=O)c1c2c(c3oc(=O)cc(CCC)c3c1O)C=CC(C)(C)O2` on RAW264.7?
Response: 13.8

Query: Any idea what inhibition at 30 µM came out for CCC(C)C(=O)c1c2c(c3oc(=O)cc(-c4ccccc4)c3c1O)C=CC(C)(C)O2 (stereo unspecified) on RAW264.7?
Response: 18.3

====

- assaySummary: Cytotoxicity against mouse RAW264.7 cells assessed as cell viability at 10 uM after 18 hrs by MTT assay
- Assay type: cell-based
- testContext: read-out: Activity
Recorded measurements of viability at 18 h, 10 µM, one per entry
Kindly answer with a numeric value in %, unit omitted.

Query: // lookup viability at 18 h, 10 µM for `CCCC(=O)c1c(O)c(CC=C(C)C)c2oc(=O)cc([C@@H](O)CC)c2c1O`
Response: 42.8

Query: // lookup viability at 18 h, 10 µM for `CCCC(=O)c1c(O)c(C/C=C(\C)CCC=C(C)C)c(O)c2c([C@H](CC)OC(C)=O)cc(=O)oc12`
Response: 24.1

Query: // lookup viability at 18 h, 10 µM for CCC(C)C(=O)c1c(O)c(C/C=C(\C)CCC=C(C)C)c(O)c2c([C@@H](O)CC)cc(=O)oc12 (some centres undefined)
Response: 61.7

Query: // lookup viability at 18 h, 10 µM for CCC(C)C(=O)c1c(O)c(CC=C(C)C)c(O)c2c([C@H](CC)OC(C)=O)cc(=O)oc12 (some centres undefined)
Response: 29.9

Query: // lookup viability at 18 h, 10 µM for CCC(C)C(=O)c1c(O)c(CC=C(C)C)c2oc(=O)cc([C@@H](O)CC)c2c1O (some centres undefined)
Response: 55.2

Query: // lookup viability at 18 h, 10 µM for `O=C(/C=C/c1ccc(O)c(O)c1)OCCc1ccccc1`
Response: 76.4
